molecular target: recombinant human ACC2 (Homo sapiens); construct: a cDNA encoding human ACC2 (27-2458) was cloned from human kidney cDNA library (Clontech); His-tag (N); made in house; host or cells: Sf-9 insect cells (Bac-to-Bac baculovirus); experiment: Measurement of inhibitory activity on human ACC2 (MALDI-TOF MS, acetyl CoA to malonyl CoA conversion); assay type: biochemical; settings: inhibition activity on human ACC2, Table 82; read-out: IC50
pIC50: −log10 of the molar value.
Property measured: pIC50

These recorded examples may help you get a feel for the data.
> print(dat)
                                 smiles.str  property.measured  result.value
1  CC(=O)N[C@@H](C)/C=C/c1ccc(Oc2ccc(S(=O)(=O)CC(C)C)cc2Cl)nc1              pIC50          6.85
2  CC(=O)N[C@@H](C)/C=C/c1ccc(Oc2ccc(-c3ccc(C)cc3)cc2Cl)nc1              pIC50          7.29
3  CCCc1cccc(Oc2ccc(/C=C/[C@H](C)NC(C)=O)cn2)n1              pIC50          5.41
4  CC(=O)N[C@@H](C)/C=C/c1ccc(Oc2ccc(-c3ccc(C#N)cc3)cc2Cl)nc1              pIC50          7.28

[I] CCNC(=O)c1cc(C(=O)N[C@@H](C)/C=C/c2cnn(Cc3ccc(OCC4CC4)c(Cl)c3Cl)c2)ccn1
[II] CC(=O)N[C@@H](C)/C=C/c1ccc(Oc2ccc(-c3ccccc3C)cc2Cl)nc1
Could you kindly indicate whether I or II has the higher pIC50 value? Answer by quoting the chosen item's label.
II
(II: 6.92, I: 6.64)

[1] CCCc1ccc(Oc2ccc(/C=C/[C@H](C)NC(C)=O)cn2)c(C)n1
[2] CCCc1ccc(Oc2ncc(/C=C/[C@H](C)NC(C)=O)cn2)cc1Cl
Among 1 and 2 , which shows a numerically higher pIC50 result? Identify your selection by its label.
2
(2: 6.77, 1: 6.31)

----------
target: recombinant human ACC2 (Homo sapiens, UniProt O00763); construct: a cDNA encoding human ACC2 (27-2458) was cloned from human kidney cDNA library (Clontech); His-tag (N); made in house; host or cells: Sf-9 insect cells (Bac-to-Bac baculovirus); test: Measurement of inhibitory activity on human ACC2 (MALDI-TOF MS, acetyl CoA to malonyl CoA conversion); format: biochemical; conditions: inhibition activity on human ACC2, Table 82; read-out: IC50
Sequence (O00763 27-2458): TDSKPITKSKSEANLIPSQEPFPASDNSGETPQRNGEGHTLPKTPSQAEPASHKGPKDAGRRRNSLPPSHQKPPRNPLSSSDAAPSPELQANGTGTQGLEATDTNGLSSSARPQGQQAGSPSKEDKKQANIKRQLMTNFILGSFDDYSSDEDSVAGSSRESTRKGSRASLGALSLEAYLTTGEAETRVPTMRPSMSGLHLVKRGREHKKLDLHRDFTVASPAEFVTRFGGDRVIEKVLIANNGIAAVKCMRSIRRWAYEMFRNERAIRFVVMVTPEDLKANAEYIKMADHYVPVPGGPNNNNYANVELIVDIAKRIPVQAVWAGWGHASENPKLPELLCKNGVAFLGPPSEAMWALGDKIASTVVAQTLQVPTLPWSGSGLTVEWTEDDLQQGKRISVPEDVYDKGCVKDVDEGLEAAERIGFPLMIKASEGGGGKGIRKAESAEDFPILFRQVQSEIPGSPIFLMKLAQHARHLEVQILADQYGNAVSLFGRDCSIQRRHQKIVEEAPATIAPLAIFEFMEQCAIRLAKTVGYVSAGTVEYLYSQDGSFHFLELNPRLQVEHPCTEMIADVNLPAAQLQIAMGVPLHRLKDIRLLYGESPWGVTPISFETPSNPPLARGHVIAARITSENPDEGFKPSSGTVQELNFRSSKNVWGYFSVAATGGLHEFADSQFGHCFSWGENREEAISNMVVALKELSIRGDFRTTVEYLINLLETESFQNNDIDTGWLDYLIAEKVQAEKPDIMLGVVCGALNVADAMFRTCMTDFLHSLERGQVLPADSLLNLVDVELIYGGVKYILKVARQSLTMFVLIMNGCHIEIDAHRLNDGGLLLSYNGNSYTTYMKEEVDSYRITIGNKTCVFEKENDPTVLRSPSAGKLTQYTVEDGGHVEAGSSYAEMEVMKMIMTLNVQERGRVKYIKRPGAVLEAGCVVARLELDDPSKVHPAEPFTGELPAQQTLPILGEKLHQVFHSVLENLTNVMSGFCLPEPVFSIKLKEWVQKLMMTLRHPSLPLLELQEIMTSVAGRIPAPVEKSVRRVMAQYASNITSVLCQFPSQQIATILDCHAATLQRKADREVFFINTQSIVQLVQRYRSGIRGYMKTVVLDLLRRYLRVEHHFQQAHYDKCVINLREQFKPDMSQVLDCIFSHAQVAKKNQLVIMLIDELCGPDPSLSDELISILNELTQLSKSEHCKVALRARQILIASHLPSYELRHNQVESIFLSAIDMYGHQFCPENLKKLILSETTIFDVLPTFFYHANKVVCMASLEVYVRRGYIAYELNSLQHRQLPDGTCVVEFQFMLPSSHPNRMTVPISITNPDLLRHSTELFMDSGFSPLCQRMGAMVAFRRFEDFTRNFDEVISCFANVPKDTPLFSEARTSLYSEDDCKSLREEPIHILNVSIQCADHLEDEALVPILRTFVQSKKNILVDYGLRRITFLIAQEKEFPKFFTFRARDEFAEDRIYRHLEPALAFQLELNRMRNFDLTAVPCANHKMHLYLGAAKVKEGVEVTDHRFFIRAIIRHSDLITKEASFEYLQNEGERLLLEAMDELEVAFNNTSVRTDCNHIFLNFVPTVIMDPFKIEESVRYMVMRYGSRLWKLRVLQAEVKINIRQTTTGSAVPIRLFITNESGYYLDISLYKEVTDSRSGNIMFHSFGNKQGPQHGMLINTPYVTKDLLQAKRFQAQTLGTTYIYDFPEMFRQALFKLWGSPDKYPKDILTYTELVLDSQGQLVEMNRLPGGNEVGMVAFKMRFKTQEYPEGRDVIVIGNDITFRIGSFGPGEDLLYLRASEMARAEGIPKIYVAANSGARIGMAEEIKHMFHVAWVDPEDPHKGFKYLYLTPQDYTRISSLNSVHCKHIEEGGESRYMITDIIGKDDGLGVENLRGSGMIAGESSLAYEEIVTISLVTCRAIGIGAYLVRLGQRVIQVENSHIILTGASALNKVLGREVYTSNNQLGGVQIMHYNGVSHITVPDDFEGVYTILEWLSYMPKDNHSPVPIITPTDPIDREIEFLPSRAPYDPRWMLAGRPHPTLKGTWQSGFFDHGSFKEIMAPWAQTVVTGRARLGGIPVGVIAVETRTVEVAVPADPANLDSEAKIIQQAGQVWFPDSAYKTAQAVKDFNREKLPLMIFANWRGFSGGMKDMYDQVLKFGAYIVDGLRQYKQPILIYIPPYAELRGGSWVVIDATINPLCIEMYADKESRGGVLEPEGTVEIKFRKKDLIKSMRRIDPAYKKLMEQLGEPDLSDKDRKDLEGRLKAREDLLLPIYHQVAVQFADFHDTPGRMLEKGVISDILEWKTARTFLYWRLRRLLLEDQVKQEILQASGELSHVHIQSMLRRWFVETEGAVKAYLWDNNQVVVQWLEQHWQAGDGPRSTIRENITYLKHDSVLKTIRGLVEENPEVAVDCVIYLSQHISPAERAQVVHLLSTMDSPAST
Property measured: IC50 (nM)

> print(dat)
                                 smiles.str  result.value
1  CC(=O)N[C@@H](C)/C=C/c1ccc(Oc2ccc(-c3cccnc3)cc2Cl)nc1           440

[P] CCNC(=O)c1cc(C(=O)N[C@@H](C)/C=C/c2cnn(Cc3c(Cl)cc(OCC4CC4)cc3Cl)c2)ccn1
[Q] CC(=O)N[C@@H](C)/C=C/c1cnc(Oc2ccc(OCC3CC3)cc2Cl)n1C
[R] CCCc1ccc(Oc2ccc(/C=C/[C@H](C)NC(C)=O)cc2)nc1
Returns the items ordered by IC50, from maximum to minimum. To answer, arrange all of the labels according to the requested order.
Q, R, P
(Q: 450 nM, R: 110 nM, P: 29 nM)
